target: CBFβ-SMMHC binding to the RUNX1 Runt domain; assay: FRET assay of CBFβ-SMMHC binding to RUNX1 Runt domain; details: read-out: FRET IC50; 10 nM Cerulean-Runt domain and 10 nM Venus-CBFβ-SMMHC

{"ITEM SMILES": "FC(F)(F)Oc1ccc2nc(-c3ccccn3)[nH]c2c1", "IC50 [µM]": 2}
{"ITEM SMILES": "COc1ccc2nc(-c3ccccn3)[nH]c2c1", "IC50 [µM]": 22}
